Biological target: PI3Kα (Homo sapiens (Human), UniProt P42336)
Sequence (P42336 whole entry): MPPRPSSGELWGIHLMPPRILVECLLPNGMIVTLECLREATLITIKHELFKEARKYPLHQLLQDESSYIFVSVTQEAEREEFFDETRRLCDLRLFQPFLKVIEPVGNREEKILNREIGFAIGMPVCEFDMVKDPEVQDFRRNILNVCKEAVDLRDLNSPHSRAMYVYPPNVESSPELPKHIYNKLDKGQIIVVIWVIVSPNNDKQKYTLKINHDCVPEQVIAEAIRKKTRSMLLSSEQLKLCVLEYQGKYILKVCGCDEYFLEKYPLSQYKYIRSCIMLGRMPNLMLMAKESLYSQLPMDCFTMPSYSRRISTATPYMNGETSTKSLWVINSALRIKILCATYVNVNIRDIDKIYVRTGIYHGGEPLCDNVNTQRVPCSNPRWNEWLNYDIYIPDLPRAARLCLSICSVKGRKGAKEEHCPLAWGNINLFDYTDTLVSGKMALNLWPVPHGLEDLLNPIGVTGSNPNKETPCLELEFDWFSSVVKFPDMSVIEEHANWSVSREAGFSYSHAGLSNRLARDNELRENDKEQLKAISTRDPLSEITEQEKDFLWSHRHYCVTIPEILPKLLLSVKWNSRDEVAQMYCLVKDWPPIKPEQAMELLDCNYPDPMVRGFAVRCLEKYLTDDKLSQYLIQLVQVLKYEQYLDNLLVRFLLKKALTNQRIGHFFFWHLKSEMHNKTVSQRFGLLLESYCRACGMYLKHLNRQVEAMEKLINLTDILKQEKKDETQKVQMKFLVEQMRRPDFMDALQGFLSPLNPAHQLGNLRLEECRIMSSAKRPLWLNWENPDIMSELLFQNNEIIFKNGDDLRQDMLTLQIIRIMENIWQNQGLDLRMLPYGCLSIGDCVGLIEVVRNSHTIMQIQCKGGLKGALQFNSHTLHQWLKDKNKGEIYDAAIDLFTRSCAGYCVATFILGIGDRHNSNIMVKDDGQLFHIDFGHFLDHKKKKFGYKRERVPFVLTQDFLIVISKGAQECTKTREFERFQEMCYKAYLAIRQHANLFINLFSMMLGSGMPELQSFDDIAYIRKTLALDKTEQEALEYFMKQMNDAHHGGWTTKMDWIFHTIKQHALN
Sequence (P27986 whole entry partner): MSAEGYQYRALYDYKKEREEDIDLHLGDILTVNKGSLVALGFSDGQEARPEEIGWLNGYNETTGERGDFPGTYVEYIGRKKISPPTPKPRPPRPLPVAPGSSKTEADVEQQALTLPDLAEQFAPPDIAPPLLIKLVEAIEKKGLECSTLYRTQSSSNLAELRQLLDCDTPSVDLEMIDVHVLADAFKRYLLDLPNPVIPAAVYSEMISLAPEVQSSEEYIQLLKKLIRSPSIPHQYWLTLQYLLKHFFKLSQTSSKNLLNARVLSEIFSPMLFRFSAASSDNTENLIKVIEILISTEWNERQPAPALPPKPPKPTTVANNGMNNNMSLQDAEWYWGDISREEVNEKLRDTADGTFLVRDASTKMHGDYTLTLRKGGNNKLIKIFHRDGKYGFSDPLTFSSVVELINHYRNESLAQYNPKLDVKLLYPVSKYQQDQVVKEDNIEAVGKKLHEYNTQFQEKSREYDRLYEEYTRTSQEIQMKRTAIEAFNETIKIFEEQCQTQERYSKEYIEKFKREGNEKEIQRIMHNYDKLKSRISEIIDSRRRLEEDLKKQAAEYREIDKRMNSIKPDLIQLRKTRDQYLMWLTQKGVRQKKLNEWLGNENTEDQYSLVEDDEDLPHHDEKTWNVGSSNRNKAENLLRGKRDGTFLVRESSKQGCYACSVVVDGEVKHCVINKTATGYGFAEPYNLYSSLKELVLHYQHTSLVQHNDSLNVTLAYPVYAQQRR
Assay: PI3Kα enzyme activity inhibition IC50 evaluation assay
Format: biochemical
Settings: ratio PI3Kα vs PI3Kδ
readoutType: α/δ selectivity

compound: COc1ncc(-c2nc(N3CCOCC3)nc3c(CN4CCN(C(=O)C5CCCCC5)CC4)csc23)cc1NS(C)(=O)=O [Compound 40]
recordedMeasurement: 41

I: COc1ncc(-c2nc(N3CCOCC3)nc3c(CN4CCN(C)CC4)c(C)sc23)cc1NS(C)(=O)=O [Compound 65]
II: COc1ncc(-c2nc(N3CCOCC3)nc3c(CN4CCC5(CC4)CC5)c(C)sc23)cc1NS(C)(=O)=O [Compound 137]
Q: Lowest α/δ selectivity? choose I or II Return value: the label identifying the chosen record.
A: I
(I: 174, II: 309)

---

Target: PI3Kβ (Homo sapiens (Human))
Sequence (P42338 whole entry): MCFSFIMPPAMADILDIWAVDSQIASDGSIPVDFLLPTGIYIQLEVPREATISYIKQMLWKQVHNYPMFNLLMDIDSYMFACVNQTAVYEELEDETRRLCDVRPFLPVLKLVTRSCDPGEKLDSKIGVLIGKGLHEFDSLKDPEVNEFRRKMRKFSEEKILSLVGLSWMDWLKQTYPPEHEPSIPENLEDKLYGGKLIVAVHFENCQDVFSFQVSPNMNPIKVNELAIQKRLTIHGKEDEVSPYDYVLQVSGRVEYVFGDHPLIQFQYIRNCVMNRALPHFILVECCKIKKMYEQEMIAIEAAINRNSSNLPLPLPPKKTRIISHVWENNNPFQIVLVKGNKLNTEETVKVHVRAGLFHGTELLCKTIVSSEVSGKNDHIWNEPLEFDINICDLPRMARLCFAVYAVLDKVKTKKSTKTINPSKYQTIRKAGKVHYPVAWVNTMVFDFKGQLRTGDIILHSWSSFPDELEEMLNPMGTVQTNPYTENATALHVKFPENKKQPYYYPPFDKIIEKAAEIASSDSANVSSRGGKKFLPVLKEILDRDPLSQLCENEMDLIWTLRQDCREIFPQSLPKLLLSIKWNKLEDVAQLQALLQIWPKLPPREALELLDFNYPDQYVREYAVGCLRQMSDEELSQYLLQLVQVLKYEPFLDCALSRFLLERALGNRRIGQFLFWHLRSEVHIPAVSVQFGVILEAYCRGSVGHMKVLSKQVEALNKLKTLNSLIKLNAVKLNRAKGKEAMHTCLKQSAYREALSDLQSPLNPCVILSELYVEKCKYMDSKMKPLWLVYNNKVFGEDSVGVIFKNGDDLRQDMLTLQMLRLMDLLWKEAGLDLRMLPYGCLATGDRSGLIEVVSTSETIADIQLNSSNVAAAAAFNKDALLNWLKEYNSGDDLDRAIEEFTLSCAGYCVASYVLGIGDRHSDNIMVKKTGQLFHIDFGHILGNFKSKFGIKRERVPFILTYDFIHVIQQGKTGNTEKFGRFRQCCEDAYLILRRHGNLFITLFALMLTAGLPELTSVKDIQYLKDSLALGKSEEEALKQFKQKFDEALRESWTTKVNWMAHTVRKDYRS
Sequence (P27986 whole entry partner): as the sequence (P27986 whole entry partner) above
Experiment: PI3Kβ enzyme activity inhibition IC50 evaluation assay
Assay type: biochemical
Conditions: ratio PI3Kβ vs PI3Kδ
readoutType: β/δ selectivity

molecule: COc1ncc(-c2nc(N3CCOCC3)nc3c(CN4CCC(OC)CC4)c(C)sc23)cc1NS(C)(=O)=O [Compound 83]
readoutType: β/δ selectivity
recordedMeasurement: 24

1: COc1ncc(-c2nc(N3CCOCC3)nc3c(CN4CCC(C(C)C)CC4)c(C)sc23)cc1NS(C)(=O)=O [Compound 88]
2: COc1ncc(-c2nc(N3CCOCC3)nc3c(CN4CCC(C)CC4)c(C)sc23)cc1NS(C)(=O)=O [Compound 101]
3: COc1ncc(-c2nc(N3CCOCC3)nc3c(CN4CCC(N5CCCCC5=O)CC4)c(C)sc23)cc1NS(C)(=O)=O [Compound 150]
Q: Arrange the 3 entries by β/δ selectivity so the values rise. Kindly provide the labels arranged according to the requested ordering.
A: 3, 2, 1

---

Biological target: PI3Kγ (Homo sapiens (Human))
Sequence (P48736 whole entry): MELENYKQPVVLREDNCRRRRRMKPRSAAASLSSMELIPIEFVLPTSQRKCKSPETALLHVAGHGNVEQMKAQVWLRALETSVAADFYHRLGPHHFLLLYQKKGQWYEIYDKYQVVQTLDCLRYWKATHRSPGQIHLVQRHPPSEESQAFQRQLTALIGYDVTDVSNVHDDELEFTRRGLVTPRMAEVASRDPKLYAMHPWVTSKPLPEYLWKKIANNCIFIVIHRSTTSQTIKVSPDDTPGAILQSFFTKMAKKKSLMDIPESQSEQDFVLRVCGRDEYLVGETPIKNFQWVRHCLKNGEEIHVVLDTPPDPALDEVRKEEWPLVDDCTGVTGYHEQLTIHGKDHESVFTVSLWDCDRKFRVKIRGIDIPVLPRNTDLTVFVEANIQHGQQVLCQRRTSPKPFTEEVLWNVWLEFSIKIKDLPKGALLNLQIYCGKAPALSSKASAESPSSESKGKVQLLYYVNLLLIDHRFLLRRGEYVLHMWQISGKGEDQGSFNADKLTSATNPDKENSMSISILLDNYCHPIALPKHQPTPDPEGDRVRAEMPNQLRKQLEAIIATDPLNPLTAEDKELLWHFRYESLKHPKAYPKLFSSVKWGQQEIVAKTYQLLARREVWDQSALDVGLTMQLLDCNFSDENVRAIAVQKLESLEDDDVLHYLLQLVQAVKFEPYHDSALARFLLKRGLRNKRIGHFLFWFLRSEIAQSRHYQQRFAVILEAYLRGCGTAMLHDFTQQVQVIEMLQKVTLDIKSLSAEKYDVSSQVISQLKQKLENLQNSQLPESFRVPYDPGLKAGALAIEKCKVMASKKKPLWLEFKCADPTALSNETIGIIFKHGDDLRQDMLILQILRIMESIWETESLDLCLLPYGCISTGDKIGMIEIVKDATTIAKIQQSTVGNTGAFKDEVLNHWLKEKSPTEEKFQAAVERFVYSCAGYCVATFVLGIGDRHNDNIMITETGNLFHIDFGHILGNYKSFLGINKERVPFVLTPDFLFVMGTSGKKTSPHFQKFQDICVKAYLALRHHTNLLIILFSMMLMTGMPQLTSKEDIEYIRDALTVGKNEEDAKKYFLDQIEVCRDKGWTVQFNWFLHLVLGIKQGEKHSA
Test: PI3Kγ enzyme activity inhibition IC50 evaluation assay
Format: biochemical
Conditions: ratio PI3Kγ vs PI3Kδ
readoutType: γ/δ selectivity

Examples with their reported γ/δ selectivity follow.
structureSmilesString: COc1ncc(-c2nc(N3CCOCC3)nc3c(CN4CCC(N(C)C(C)C)CC4)c(C)sc23)cc1NS(C)(=O)=O
γ/δ selectivity: 532
--
structureSmilesString: COc1ncc(-c2nc(N3CCOCC3)nc3c(CN4CCC(C)(C)CC4)c(C)sc23)cc1NS(C)(=O)=O
γ/δ selectivity: 244
--
structureSmilesString: COc1ncc(-c2nc(N3CCOCC3)nc3c(CN4CCC(N5CCCCC5)CC4)c(C)sc23)cc1NS(C)(=O)=O
γ/δ selectivity: 567
--
structureSmilesString: COc1ncc(-c2nc(N3CCOCC3)nc3c(CN4CCC(N5CCCC5)CC4)c(C)sc23)cc1NS(C)(=O)=O
γ/δ selectivity: 611

a: COc1ncc(-c2nc(N3CCOCC3)nc3c(CN4CCC(C(C)C)CC4)c(C)sc23)cc1NS(C)(=O)=O
b: COc1ncc(-c2nc(N3CCOCC3)nc3c(CN4CCC(O)CC4)c(C)sc23)cc1NS(C)(=O)=O
c: COc1ncc(-c2nc(N3CCOCC3)nc3c(CN4CCN(CC(F)(F)F)CC4)c(C)sc23)cc1NS(C)(=O)=O
Q: Arrange the 3 entries by γ/δ selectivity so the values rise. Kindly provide the labels arranged according to the requested ordering.
A: b, c, a
(b: 262, c: 498, a: 1202)

1: COc1ncc(-c2nc(N3CCOCC3)nc3c(CN4CCC(C)CC4)c(C)sc23)cc1NS(C)(=O)=O
2: Cc1sc2c(-c3cccc4[nH]ccc34)nc(N3CCOCC3)nc2c1CN1CCN(C(=O)CO)CC1
Q: Which shows the larger γ/δ selectivity value: 1 or 2 ? Return value: the label identifying the chosen record.
A: 1
(1: 482, 2: 57)

I: COc1ncc(-c2nc(N3CCOCC3)nc3c(CN4CCC(N5CCCCC5=O)CC4)c(C)sc23)cc1NS(C)(=O)=O
II: COc1ncc(-c2nc(N3CCOCC3)nc3c(CN4CCC5(CC4)OCCO5)c(C)sc23)cc1NS(C)(=O)=O
Q: Lowest γ/δ selectivity? choose I or II Return value: the label identifying the chosen record.
A: I
(I: 221, II: 377)
